System: Mus musculus
ASSAY PROCEDURE: Antihyperglycemic activity in db/db mouse assessed as inhibition of post prandial blood glucose level at 30 mg/kg, po qd administered 15 days measured on day 10 by OGTT relative to vehicle-treated control
Format: functional
Is inhibition in vivo at 30 mg/kg at least -30%? Then label 1. If not, label 0.

CN(CCOc1ccc(C2N(Cc3ccccc3)C(=O)C[S+]2[O-])cc1)c1ccccn1 (stereo not given)    label 1
CN(CCOc1ccc(CC2SC(=O)NC2=O)cc1)c1ccccn1 (stereo not given)    label 0
CCCCN1C(=O)C[S+]([O-])C1c1ccc(OCCN(C)c2ccccn2)cc1 (stereo not given)    label 1
CN(CCOc1ccc(C2NC(=O)CS2)cc1)c1ccccn1 (stereo not given)    label 1
CN(CCOc1ccc(C2NC(=O)CCS2)cc1)c1ccccn1 (stereo not given)    label 0

Textbook exercise: given the entry CN(CCOc1ccc(C2SCCC(=O)N2C2CC2)cc1)c1ccccn1 (stereo not given) , state whether its inhibition in vivo at 30 mg/kg is greater than or equal to -30%.
label 1

Is reported inhibition in vivo at 30 mg/kg greater than or equal to -30% here: CN(CCOc1ccc(C2SCC(=O)N2C2CC2)cc1)c1ccccn1 (stereo not given)
label 1

inhibition in vivo at 30 mg/kg >= -30% for CCCCN1C(=O)CSC1c1ccc(OCCN(C)c2ccccn2)cc1 (stereo not given) ?
label 1

API: above_or_equal(metric=inhibition in vivo at 30 mg/kg, cutoff=-30%) for item CN(CCOc1ccc(C2SCC(=O)N2Cc2ccccc2)cc1)c1ccccn1 (stereo not given)
label 1

====

System: L6
ASSAY PROCEDURE: Antihyperglycemic activity in rat L6 cells assessed as increase in 2-deoxy-[3H]-D-glucose uptake at 10 uM after 18 hrs by liquid scintillation counting analysis relative to control
Type: functional
# reported Activity; entries follow
State the answer as a number, implicitly in %.

Before answering, review these 2 worked examples.
CCCCN1C(=O)CCSC1c1ccc(OCCN(C)c2ccccn2)cc1 (centres undefined)    35.4
CN(CCOc1ccc(C2SCC(=O)N2C2CC2)cc1)c1ccccn1 (centres undefined)    67.2

Name the recorded Activity of CN(CCOc1ccc(C2N(Cc3ccccc3)C(=O)C[S+]2[O-])cc1)c1ccccn1 (centres undefined) , assay system L6.
45.5

Specify the recorded Activity for CN(CCOc1ccc(C2SCCC(=O)N2Cc2ccccc2)cc1)c1ccccn1 (centres undefined) , system: L6.
33

====

Overview of recorded Activity for various molecules
System: Mus musculus
ASSAY PROCEDURE: Antidyslipidemic activity in db/db mouse assessed as decrease in plasma triglycerides level at 30 mg/kg, po qd administered 15 days measured on day 16 by ELISA relative to vehicle-treated control
Type: functional
Set-up: scale not given: the % may be the effect or the level left
RECORDED CONDITIONS: in the assay text read “by colorimetric assay” for “by ELISA”

# example entries with known answers
CN(CCOc1ccc(CC2SC(=O)NC2=O)cc1)c1ccccn1 (stereo unspecified) [ROSIGLITAZONE]    32.5%
CN(CCOc1ccc(C2SCCC(=O)N2C2CC2)cc1)c1ccccn1 (stereo unspecified)    29.9%
CN(CCOc1ccc(C2NC(=O)CCS2)cc1)c1ccccn1 (stereo unspecified)    13.2%
CN(CCOc1ccc(C2SCC(=O)N2C2CC2)cc1)c1ccccn1 (stereo unspecified)    15.6%
CN(CCOc1ccc(C2SCCC(=O)N2Cc2ccccc2)cc1)c1ccccn1 (stereo unspecified)    25.6%
CN(CCOc1ccc(C2SCC(=O)N2Cc2ccccc2)cc1)c1ccccn1 (stereo unspecified)    9.83%

Please report the measured Activity for CN(CCOc1ccc(C2N(Cc3ccccc3)C(=O)C[S+]2[O-])cc1)c1ccccn1 (stereo unspecified) tested on Mus musculus.
18.4%

Answer with Activity of CCCCN1C(=O)C[S+]([O-])C1c1ccc(OCCN(C)c2ccccn2)cc1 (stereo unspecified) measured for Mus musculus.
19.2%

Please respond with reported Activity (system Mus musculus) for CCCCN1C(=O)CSC1c1ccc(OCCN(C)c2ccccn2)cc1 (stereo unspecified) .
31.8%

Give reported Activity for CN(CCOc1ccc(C2NC(=O)CS2)cc1)c1ccccn1 (stereo unspecified) (Mus musculus)
14%

Quote Activity with test system Mus musculus for CCCCN1C(=O)CS(=O)(=O)C1c1ccc(OCCN(C)c2ccccn2)cc1 (stereo unspecified)
14.7%

====

Test system: L6
ASSAY PROCEDURE: Antihyperglycemic activity in rat L6 cells assessed as increase in 2-deoxy-[3H]-D-glucose uptake at 10 uM after 18 hrs by liquid scintillation counting analysis relative to control
Format: functional
// returns N unless Activity is strictly below 50%, in which case Y

A selection of reference data follows.
CN(CCOc1ccc(C2NC(=O)CCS2)cc1)c1ccccn1 (stereo not given)    N
CN(CCOc1ccc(C2NC(=O)CS2)cc1)c1ccccn1 (stereo not given)    N
CN(CCOc1ccc(C2SCCC(=O)N2C2CC2)cc1)c1ccccn1 (stereo not given)    N

Determine if CC(C)N1C(=O)CCSC1c1ccc(OCCN(C)c2ccccn2)cc1 (stereo not given) shows Activity strictly lower than 50%.
Y

Hey, just so you know, these numbers are from ChEMBL document CHEMBL2375262.
